Biological target: human F508del CFTR (Homo sapiens, UniProt P13569, DEL508-508)
Construct: expressed in transfected cells; host or cells: Fisher Rat Thyroid (FRT) cells
Sequence (P13569 with tags, fused parts or gaps DEL508-508): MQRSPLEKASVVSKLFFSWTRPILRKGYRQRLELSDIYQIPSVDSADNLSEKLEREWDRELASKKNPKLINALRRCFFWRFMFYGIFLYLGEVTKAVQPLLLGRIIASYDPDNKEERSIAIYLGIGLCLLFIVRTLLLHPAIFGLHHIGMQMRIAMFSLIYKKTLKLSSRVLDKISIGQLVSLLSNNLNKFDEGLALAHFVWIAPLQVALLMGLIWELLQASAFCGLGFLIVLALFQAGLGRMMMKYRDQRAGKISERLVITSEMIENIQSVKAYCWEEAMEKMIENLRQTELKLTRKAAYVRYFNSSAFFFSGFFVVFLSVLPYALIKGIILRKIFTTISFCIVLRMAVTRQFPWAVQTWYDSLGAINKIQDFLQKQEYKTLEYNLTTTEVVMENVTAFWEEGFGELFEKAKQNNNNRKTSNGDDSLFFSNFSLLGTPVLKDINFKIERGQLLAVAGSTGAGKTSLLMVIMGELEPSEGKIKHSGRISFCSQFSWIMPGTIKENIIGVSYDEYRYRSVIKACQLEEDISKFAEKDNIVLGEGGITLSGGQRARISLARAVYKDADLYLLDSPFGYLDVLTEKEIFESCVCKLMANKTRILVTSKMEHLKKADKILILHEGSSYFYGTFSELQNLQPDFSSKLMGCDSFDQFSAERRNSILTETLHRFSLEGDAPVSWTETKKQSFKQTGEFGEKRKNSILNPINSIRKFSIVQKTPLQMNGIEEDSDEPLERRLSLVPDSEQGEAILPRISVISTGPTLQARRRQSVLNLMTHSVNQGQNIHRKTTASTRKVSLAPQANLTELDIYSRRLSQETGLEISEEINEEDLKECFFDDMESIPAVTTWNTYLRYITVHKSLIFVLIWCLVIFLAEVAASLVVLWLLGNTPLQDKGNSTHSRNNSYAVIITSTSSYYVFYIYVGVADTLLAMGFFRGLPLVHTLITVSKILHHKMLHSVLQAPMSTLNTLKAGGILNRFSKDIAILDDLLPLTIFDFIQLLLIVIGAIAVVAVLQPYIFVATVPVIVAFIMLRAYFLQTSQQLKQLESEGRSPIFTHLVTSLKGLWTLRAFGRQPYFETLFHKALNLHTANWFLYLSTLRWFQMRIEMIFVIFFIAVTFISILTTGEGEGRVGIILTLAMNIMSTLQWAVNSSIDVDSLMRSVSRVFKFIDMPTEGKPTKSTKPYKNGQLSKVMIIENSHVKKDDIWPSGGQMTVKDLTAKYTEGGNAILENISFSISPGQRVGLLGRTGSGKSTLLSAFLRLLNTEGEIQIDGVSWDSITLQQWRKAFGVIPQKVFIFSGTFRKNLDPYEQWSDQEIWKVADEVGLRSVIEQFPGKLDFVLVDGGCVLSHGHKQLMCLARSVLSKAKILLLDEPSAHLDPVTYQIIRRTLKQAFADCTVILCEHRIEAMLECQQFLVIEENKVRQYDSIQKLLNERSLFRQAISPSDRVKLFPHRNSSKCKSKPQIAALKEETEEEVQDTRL
Test: CFTR-YFP High Throughput Assay
Assay type: cell-based
Settings: EMax normalized to the positive control; FRT cells expressing human F508del CFTR and YFP; read-out: % Efficacy
MEASURED_QUANTITY: Emax

>  <COMPOUND>
CCN(C(=O)c1nn(-c2ccc(Cl)cc2)c(=O)c2c1c1ccccc1n2C)c1ccccc1 [Example 178]

>  <Emax>
30 to 80%

$$$$
>  <COMPOUND>
CCN(C(=O)c1nn(C(C)C)c(=O)c2c1c1ccccc1n2C)c1cccc(Cl)c1 [Example 201]

>  <Emax>
30 to 80%

$$$$
>  <COMPOUND>
Cc1ccc(-n2nc(C(=O)N3CCCc4ccccc43)c3c4ccccc4n(C)c3c2=O)cc1 [Example 159]

>  <Emax>
30 to 80%

$$$$
>  <COMPOUND>
Cc1ccc(-n2nc(-c3ccccc3)c3c4ccccc4n(C)c3c2=O)cc1 [Example 236]

>  <Emax>
10 to 30%

$$$$

Could you tell me Emax for each of these compounds? They are listed below.
1. Cn1c2ccccc2c2c(-c3ccccc3)nn(-c3ccccc3)c(=O)c21 [Example 235]
2. COc1ccc2c(-c3cccc(F)c3)nn(CC(=O)C3(c4ccc5c(c4)OC(F)(F)O5)CC3)c(=O)c2c1 [Example 250]

**Result**
1: 10 to 30%; 2: 30 to 80%
